B1: F1*; the commonest letter at each place (parent)
chain: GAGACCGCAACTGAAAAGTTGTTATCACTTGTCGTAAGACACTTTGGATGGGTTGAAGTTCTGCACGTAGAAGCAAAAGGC

Variants of: B1
Assay: fraction ligated after 30 min (ligated reads / total reads); higher = more ligase activity
Settings: with F1*sub RNA substrate (template-directed ligation), 42 °C
readout_name: fraction ligated
Number, no unit, nothing else.

Reference set, count: 8
mutant: A41T A57C
data_value: 0.787
//
mutant: C28G G34C
data_value: 0.768
//
mutant: T43G G50T
data_value: 0.561
//
mutant: C26T G38C
data_value: 0.81
//
mutant: G31A G50C
data_value: 0.0295
//
mutant: A27G A57C
data_value: 0.777
//
mutant: C33T A57G
data_value: 0.861
//
mutant: T45C A56G
data_value: 0.569

Asked: Kindly indicate its recorded fraction ligated. Item: T25G G38T
Given back: 0.659

Asked: Kindly indicate its recorded fraction ligated. Item: T30G A39G
Given back: 0.841

Asked: Kindly indicate its recorded fraction ligated. Item: T32C C33A
Given back: 0.863

Asked: Kindly indicate its recorded fraction ligated. Item: A41C T44G
Given back: 0.797

Asked: Kindly indicate its recorded fraction ligated. Item: G47C G55T
Given back: 0.0996

Asked: Kindly indicate its recorded fraction ligated. Item: A27G G34C
Given back: 0.804

Asked: Kindly indicate its recorded fraction ligated. Item: T25C G50C
Given back: 0.379

Asked: Kindly indicate its recorded fraction ligated. Item: A27T C33A
Given back: 0.84
